src = patent US10894777B2

tested_system: TG2 (Homo sapiens, UniProt P21980)
Sequence (P21980 whole entry): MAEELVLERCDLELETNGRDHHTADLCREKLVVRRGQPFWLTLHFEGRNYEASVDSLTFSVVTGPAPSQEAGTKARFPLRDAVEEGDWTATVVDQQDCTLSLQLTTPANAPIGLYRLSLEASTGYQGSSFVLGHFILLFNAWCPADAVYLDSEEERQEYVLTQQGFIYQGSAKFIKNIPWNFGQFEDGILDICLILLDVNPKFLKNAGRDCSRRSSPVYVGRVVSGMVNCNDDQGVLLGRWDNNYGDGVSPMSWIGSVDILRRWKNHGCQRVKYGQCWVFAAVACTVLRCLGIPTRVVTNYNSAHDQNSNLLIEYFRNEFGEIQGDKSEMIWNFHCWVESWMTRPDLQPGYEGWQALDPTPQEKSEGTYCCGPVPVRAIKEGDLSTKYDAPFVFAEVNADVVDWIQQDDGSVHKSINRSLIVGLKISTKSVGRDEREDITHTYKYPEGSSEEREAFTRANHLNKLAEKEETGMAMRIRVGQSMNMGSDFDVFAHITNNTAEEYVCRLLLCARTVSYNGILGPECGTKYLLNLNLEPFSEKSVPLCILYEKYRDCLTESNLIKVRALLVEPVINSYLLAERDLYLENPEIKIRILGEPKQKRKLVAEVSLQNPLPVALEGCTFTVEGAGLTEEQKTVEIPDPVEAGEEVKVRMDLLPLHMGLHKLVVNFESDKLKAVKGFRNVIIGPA
assay_protocol: Kinetic inactivation of purified recombinant human TG2, continuous spectrophotometric activity assay (Examples 3, 10)
Type: biochemical
Design: made in house
test_parameters: Table 4
Note to self: values exactly at 0.009 s⁻¹ are 1.0. So kinact at or above 0.009 s⁻¹ is 1.0, below is 0.0.

• C=CC(=O)NCCCC[C@H](NC(=O)OCc1ccccc1)C(=O)N1CCN(C(=O)c2cc3ccc(O)cc3oc2=O)CC1 [VA5] = 1.0
• C=CC(=O)NCCC[C@H](NC(=O)OCc1ccccc1)C(=O)N1CCN(S(=O)(=O)c2cccc3c(N(C)C)cccc23)CC1 [Compound 117] = 1.0
• C=CC(=O)NCCCC[C@H](NC(=O)OCc1ccccc1)C(=O)N1CCN(S(C)(=O)=O)CC1 [Compound 135] = 1.0
• C=CC(=O)NCCCC[C@H](NC(=O)OCc1ccccc1)C(=O)N1CCN(S(=O)(=O)c2ccc3ccccc3c2)CC1 [Compound 129] = 0.0
• C=CC(=O)NCCCC[C@H](NC(=O)OCc1ccccc1)C(=O)NCCNS(=O)(=O)c1cccc2c(N(C)C)cccc12 [Compound 111] = 1.0
• C=CC(=O)NCCCC[C@H](NC(=O)OCc1ccccc1)C(=O)N1CCN(S(=O)(=O)C2CCCCC2)CC1 [Compound 132] = 0.0

====

tested_system: TG2 (Homo sapiens, UniProt P21980)
assay_protocol: Kinetic inactivation of purified recombinant human TG2, continuous spectrophotometric activity assay (Examples 3, 10)
Format: biochemical
Set-up: made in house
test_parameters: Table 4
Listing: kinact of selected compounds
observable: kinact (s⁻¹)

- C=CC(=O)NCCCC[C@H](NC(=O)OCc1ccccc1)C(=O)N1CCN(S(=O)(=O)C(C)C)CC1 [Compound 133]: 0.0115
- C=CC(=O)NCCCC[C@H](NC(=O)OCc1ccccc1)C(=O)N1CCN(S(=O)(=O)c2cccc3ccccc23)CC1 [Compound 128]: 0.0082
- C=CC(=O)NCCCC[C@H](NC(=O)OCc1ccccc1)C(=O)N1CCN(S(=O)(=O)c2ccccc2)CC1 [Compound 130]: 0.0102
- C=CC(=O)NCCCC[C@H](NC(=O)OCc1ccccc1)C(=O)N1CCN(C(=O)c2ccc3ccccc3c2)CC1 [AA10]: 0.0202

====

tested_system: UniProt:P21980
assay_protocol: Kinetic inactivation of purified recombinant human TG2, continuous spectrophotometric activity assay (Examples 3, 10)
Type: biochemical
Set-up: made in house
test_parameters: read-out: kinact/Ki (μM^−1 min^−1); Table 4; for ^a no saturation observed, efficiency obtained from initial slope
observable: kinact/KI (M⁻¹ s⁻¹)

* C=CC(=O)NCCCC[C@H](NC(=O)OCc1ccccc1)C(=O)N1CCN(S(=O)(=O)Cc2ccccc2)CC1 [Compound 131] | 1900
* C=CC(=O)NCCCC[C@H](NC(=O)OCc1ccccc1)C(=O)N1CCN(S(=O)(=O)C(C)C)CC1 [Compound 133] | 2800
* C=CC(=O)NCCCC[C@H](NC(=O)OCc1ccccc1)C(=O)N1CCN(S(=O)(=O)c2ccc3ccccc3c2)CC1 [Compound 129] | 2500
* C=CC(=O)NCCCC[C@H](NC(=O)OCc1ccccc1)C(=O)N1CCN(C(=O)c2ccc3ccccc3c2)CC1 [AA10] | 4000
* C=CC(=O)NCCCC[C@H](NC(=O)OCc1ccccc1)C(=O)N1CCN(C(=O)c2cc3ccc(O)cc3oc2=O)CC1 [VA5] | 2750
* C=CC(=O)NCCCC[C@H](NC(=O)OCc1ccccc1)C(=O)NCCCNS(=O)(=O)c1cccc2c(N(C)C)cccc12 [Compound 110] | 783

====

Listing: kinact/KI of selected molecules
tested_system: TG2 (Homo sapiens)
assay_protocol: Colorimetric transamidase activity assay (AL5 substrate), hTG2
Type: biochemical
test_parameters: read-out: kinact/KI (10^3M^−1 min^−1); Table 7
observable: kinact/KI (M⁻¹ s⁻¹)

* C=CC(=O)NCCCC[C@H](NC(=O)OCc1ccccc1)C(=O)N1CCN(S(=O)(=O)c2cccs2)CC1 | 613
* C=CC(=O)NCCCC[C@H](NC(=O)OCc1ccccc1)C(=O)N1CCN(S(=O)(=O)c2ccc3ccccc3c2)CC1 | 955
* C=CC(=O)NCCCC[C@H](NC(=O)OCc1ccccc1)C(=O)N1CCN(S(=O)(=O)c2ccccc2)CC1 | 888
* C=CC(=O)NCCCC[C@H](NC(=O)OCc1ccccc1)C(=O)N1CCN(S(=O)(=O)c2cccc3ccccc23)CC1 | 620
